- EXPERIMENTAL SYSTEM: M4 muscarinic receptor (Homo sapiens, UniProt P08173)
- Construct: expressed in transfected cells; host or cells: CHO (M4-CHO)
- Sequence (P08173 whole entry): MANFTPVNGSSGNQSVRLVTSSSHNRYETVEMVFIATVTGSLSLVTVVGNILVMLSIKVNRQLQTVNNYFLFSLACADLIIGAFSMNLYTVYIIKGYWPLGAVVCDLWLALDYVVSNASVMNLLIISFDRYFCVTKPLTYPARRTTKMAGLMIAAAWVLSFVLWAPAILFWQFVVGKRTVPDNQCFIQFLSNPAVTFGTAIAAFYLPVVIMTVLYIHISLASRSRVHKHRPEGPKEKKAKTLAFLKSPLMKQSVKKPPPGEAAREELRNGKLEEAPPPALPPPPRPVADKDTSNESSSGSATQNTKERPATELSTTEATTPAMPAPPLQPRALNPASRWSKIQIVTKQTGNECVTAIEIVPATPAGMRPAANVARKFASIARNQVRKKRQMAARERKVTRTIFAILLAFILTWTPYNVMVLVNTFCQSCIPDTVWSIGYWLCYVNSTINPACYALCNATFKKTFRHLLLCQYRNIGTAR
- METHOD: Functional mobilization of intracellular calcium (FLIPR) in M4-CHO cells
- Type: cell-based
- STATED CONDITIONS: CHO cells expressing M4, calcium mobilization; Table 5
Here the recorded EC50 is given for each entry.
PARAMETER: EC50

{"SMI": "CN(C)C(=O)N1CC2(CCN(C3CCN(c4nccs4)CC3)CC2)c2cc(F)ccc21", "RESULT": "< 2000 nM"}
{"SMI": "CN(C)C(=O)N1CC2(CCN(C[C@H]3CCN(c4nccs4)C3)CC2)c2cc(F)ccc21", "RESULT": "< 2000 nM"}
{"SMI": "COc1ccc(F)cc1N1CCC(N2CCC3(CC2)CN(C(=O)N(C)C)c2ccc(F)cc23)CC1", "RESULT": "2000 to 10000 nM"}
{"SMI": "CN(C)C(=O)N1CC2(CCN(C3CCN(c4ccsc4)CC3)CC2)c2cc(F)ccc21", "RESULT": "2000 to 10000 nM"}
{"SMI": "CN(C)C(=O)N1CC2(CCN(C3CCN(c4cnccn4)CC3)CC2)c2cc(F)ccc21", "RESULT": "< 2000 nM"}
{"SMI": "COc1ccc(N2CCC(N3CCC4(CC3)CN(C(=O)N(C)C)c3ccc(F)cc34)CC2)cc1", "RESULT": "2000 to 10000 nM"}
{"SMI": "CN(C)C(=O)N1CC2(CCN(C[C@H]3CCN(c4cnccn4)C3)CC2)c2cc(F)ccc21", "RESULT": "< 2000 nM"}
{"SMI": "CC(=O)N1CC2(CCN(C3CCN(c4nccs4)CC3)CC2)c2cc(F)ccc21", "RESULT": "< 2000 nM"}
